Listing of entries alongside the reported relative enzymatic activity.
Assay Target: GlmU (UniProt A7ZTU1)
Sequence (A7ZTU1 whole entry, looked up): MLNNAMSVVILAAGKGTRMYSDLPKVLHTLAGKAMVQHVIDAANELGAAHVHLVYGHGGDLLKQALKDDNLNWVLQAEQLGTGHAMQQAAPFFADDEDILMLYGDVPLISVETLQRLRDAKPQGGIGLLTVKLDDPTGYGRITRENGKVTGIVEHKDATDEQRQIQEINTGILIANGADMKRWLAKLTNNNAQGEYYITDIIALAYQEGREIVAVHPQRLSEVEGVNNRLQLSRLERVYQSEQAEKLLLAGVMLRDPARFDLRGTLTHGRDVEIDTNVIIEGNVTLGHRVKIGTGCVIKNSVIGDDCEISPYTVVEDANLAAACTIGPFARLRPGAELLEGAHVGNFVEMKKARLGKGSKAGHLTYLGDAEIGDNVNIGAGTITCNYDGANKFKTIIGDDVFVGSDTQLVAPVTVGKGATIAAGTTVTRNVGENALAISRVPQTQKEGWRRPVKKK
Test Details: relative enzymatic activity vs untreated control (fraction); higher = less inhibition
Recorded Conditions: 100 µM; incubation time: 2 h at 37 C

- Molecule: "CC1CN(c2c(F)c(N)c3c(=O)c(C(=O)O)cn(C4CC4)c3c2F)CC(C)N1 (configuration not stated)"
  relative enzymatic activity: 0.913
- Molecule: "CCn1cc(C(=O)O)c(=O)c2cnc(N3CCNCC3)nc21"
  relative enzymatic activity: 0.94
- Molecule: "CC[C@@H](C)CCCCC(=O)N[C@@H](CCN)C(=O)N[C@H](C(=O)N[C@@H](CCN)C(=O)N[C@H]1CCNC(=O)[C@H]([C@@H](C)O)NC(=O)[C@H](CCN)NC(=O)[C@H](CCN)NC(=O)[C@H](CC(C)C)NC(=O)[C@@H](Cc2ccccc2)NC(=O)[C@@H](CCN)NC1=O)[C@@H](C)O"
  relative enzymatic activity: 1.11
- Molecule: "COC1(NC(=O)Cc2cccs2)C(=O)N2C(C(=O)[O-])=C(COC(N)=O)CSC21.[Na+] (configuration not stated)"
  relative enzymatic activity: 0.984
- Molecule: "C=CC1=C(C(=O)O)N2C(=O)[C@@H](NC(=O)/C(=N\\O)c3csc(N)n3)[C@H]2SC1"
  relative enzymatic activity: 0.988

response.value for Cc1oc(=O)oc1CN1CCN(c2cc3c(cc2F)c(=O)c(C(=O)O)c2n3C(C)S2)CC1 (configuration not stated) (field: relative enzymatic activity) = 0.942

response.value for `CCn1cc(C(=O)O)c(=O)c2cc(F)c(N3CCN(C(=S)Nc4cc(C(F)(F)F)ccc4Cl)CC3)cc21` (field: relative enzymatic activity) = 1.03

response.value for `CCCCCCCCCCCCCCCC[N+](C)(C)C` (field: relative enzymatic activity) = 0.198

response.value for `CC1(C)S[C@@H]2[C@H](NC(=O)[C@H](N)c3ccccc3)C(=O)N2[C@H]1C(=O)OCOC(=O)[C@@H]1N2C(=O)C[C@H]2S(=O)(=O)C1(C)C` (field: relative enzymatic activity) = 0.994

response.value for `O=C(O)c1cn(C2CC2)c2cc(N3CCC(O)(COc4ccc(N5C[C@H](CO)OC5=O)cc4F)CC3)c(F)cc2c1=O` (field: relative enzymatic activity) = 0.997

response.value for `NC(=O)N/N=C/c1ccc([N+](=O)[O-])o1` (field: relative enzymatic activity) = 1.01

response.value for Nc1nc(C(=CCC(=O)O)C(=O)NC2C(=O)N3C(C(=O)O)=CCSC23)cs1 (configuration not stated) (field: relative enzymatic activity) = 0.934

response.value for COC1(NC(=O)C(C(=O)[O-])c2ccc(O)cc2)C(=O)N2C(C(=O)[O-])=C(CSc3nnnn3C)COC21.[Na+].[Na+] (configuration not stated) (field: relative enzymatic activity) = 0.998

response.value for `O=c1[nH]c(=O)n([C@H]2C[C@H](O)[C@@H](CO)O2)cc1F` (field: relative enzymatic activity) = 0.979

response.value for CCN1CCN(C(=O)NC(C(=O)NC2C(=O)N3C2SC(C)(C)C3C(=O)[O-])c2ccccc2)C(=O)C1=O.[Na+] (configuration not stated) (field: relative enzymatic activity) = 0.886

response.value for CCC(C)CCCCC(=O)NC(CCN)C(=O)NC(C(=O)NC(CCN)C(=O)NC1CCNC(=O)C(C(C)O)NC(=O)C(CCN)NC(=O)C(CCN)NC(=O)C(CC(C)C)NC(=O)C(Cc2ccccc2)NC(=O)C(CCN)NC1=O)C(C)O.O=S(=O)(O)O (configuration not stated) (field: relative enzymatic activity) = 1.04

response.value for CC1c2cccc(O)c2C(=O)C2=C(O)C3(O)C(=O)C(C(N)=O)=C(O)C(N(C)C)C3C(O)C21.Cl (configuration not stated) (field: relative enzymatic activity) = 0.971

----------
Assay Target: MurD (UniProt P14900)
Sequence (P14900 whole entry): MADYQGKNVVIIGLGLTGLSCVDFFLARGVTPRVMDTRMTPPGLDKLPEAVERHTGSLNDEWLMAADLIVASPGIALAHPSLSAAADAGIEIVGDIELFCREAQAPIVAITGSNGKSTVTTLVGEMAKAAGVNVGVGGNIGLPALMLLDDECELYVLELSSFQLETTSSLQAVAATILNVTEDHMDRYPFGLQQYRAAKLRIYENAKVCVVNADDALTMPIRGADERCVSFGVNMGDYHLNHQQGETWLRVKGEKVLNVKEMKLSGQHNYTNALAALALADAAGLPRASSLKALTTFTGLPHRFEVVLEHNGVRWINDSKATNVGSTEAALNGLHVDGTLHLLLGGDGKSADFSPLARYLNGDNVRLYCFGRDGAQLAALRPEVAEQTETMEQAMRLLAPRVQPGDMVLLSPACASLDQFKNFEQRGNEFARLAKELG
Test Details: relative enzymatic activity vs untreated control (fraction); higher = less inhibition
Recorded Conditions: 100 µM; incubation time: 2 h at 37 C
Result Type: relative enzymatic activity
Lab note: write the figure by itself, no unit.

Some entries whose results are on file:
- Compound: "Cc1c(N)nc([C@H](CC(N)=O)NC[C@H](N)C(N)=O)nc1C(=O)N[C@H](C(=O)N[C@H](C)[C@@H](O)[C@H](C)C(=O)N[C@H](C(=O)NCCc1nc(-c2nc(C(=O)NCCCNCCCCN)cs2)cs1)[C@@H](C)O)[C@@H](O[C@@H]1O[C@@H](CO)[C@@H](O)[C@H](O)[C@@H]1O[C@@H]1O[C@H](CO)[C@@H](O)[C@H](OC(N)=O)[C@@H]1O)c1c[nH]cn1"
  relative enzymatic activity: 0.622
- Compound: "Cl.O=C1CC2(CCCC2)CC(=O)N1CCCCN1CCN(c2ncccn2)CC1"
  relative enzymatic activity: 0.609
- Compound: "Cc1oc(=O)oc1CN1CCN(c2cc3c(cc2F)c(=O)c(C(=O)O)c2n3C(C)S2)CC1 (centres undefined)"
  relative enzymatic activity: 0.586
- Compound: "CC(C)[C@@H](CC[C@@H](C)[C@H]1CC[C@H]2[C@@H]3[C@H](O)C[C@H]4C[C@@H](NCCCNCCCCNCCCN)CC[C@]4(C)[C@H]3CC[C@]12C)OS(=O)(=O)O"
  relative enzymatic activity: 0.59

// next item, relative enzymatic activity requested
response.value for `Oc1ccc(Cl)c2cccnc12` (field: relative enzymatic activity) = 0.656

----------
Assay Target: MurA (UniProt Q3YX52)
Sequence (Q3YX52 whole entry): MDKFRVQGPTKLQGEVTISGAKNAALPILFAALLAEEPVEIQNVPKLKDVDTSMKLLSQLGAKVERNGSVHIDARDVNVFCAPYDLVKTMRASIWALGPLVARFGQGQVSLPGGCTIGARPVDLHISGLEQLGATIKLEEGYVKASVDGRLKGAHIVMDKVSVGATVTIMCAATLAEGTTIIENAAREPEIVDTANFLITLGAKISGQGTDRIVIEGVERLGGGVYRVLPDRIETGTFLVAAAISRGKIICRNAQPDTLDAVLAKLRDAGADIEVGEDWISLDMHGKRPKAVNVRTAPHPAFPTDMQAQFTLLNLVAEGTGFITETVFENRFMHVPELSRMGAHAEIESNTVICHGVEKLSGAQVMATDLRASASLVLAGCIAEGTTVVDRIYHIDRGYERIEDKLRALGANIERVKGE
Test Details: relative enzymatic activity vs untreated control (fraction); higher = less inhibition
Recorded Conditions: 100 µM; incubation time: 2 h at 37 C
Response key: met means relative enzymatic activity >= 0.5; not met means relative enzymatic activity < 0.5.

- Compound: "NC[C@H]1OB(O)c2c(OCCCO)cccc21"
  Class Assignment: "met"
- Compound: "COC1C=COC2(C)Oc3c(C)c(O)c4c(O)c(c5c(nc6cc(C)ccn65)c4c3C2=O)NC(=O)C(C)=CC=CC(C)C(O)C(C)C(O)C(C)C(OC(C)=O)C1C (centres undefined)"
  Class Assignment: "not met"
- Compound: "Cc1oc(=O)oc1CN1CCN(c2cc3c(cc2F)c(=O)c(C(=O)O)c2n3C(C)S2)CC1 (centres undefined)"
  Class Assignment: "not met"
- Compound: "O=C1OCCN1N=Cc1ccc([N+](=O)[O-])o1"
  Class Assignment: "met"
- Compound: "CON=C(C(=O)NC1C(=O)N2C(C(=O)[O-])=C(COC(C)=O)CSC12)c1csc(N)n1.[Na+] (centres undefined)"
  Class Assignment: "not met"

Say whether CC1CCc2cc(F)cc3c(=O)c(C(=O)O)cn1c23 (centres undefined) shows relative enzymatic activity of 0.5 or more.
met

Say whether `CON=C(C(=O)N[C@@H]1C(=O)N2C(C(=O)O)=C(CSc3nc(=O)c(O)nn3C)CS[C@H]12)c1csc(N)n1` shows relative enzymatic activity of 0.5 or more.
not met

Say whether `CC(C)CCCC(=O)N[C@@H](CCNCS(=O)(=O)O)C(=O)N[C@H](C(=O)N[C@@H](CCNCS(=O)(=O)O)C(=O)N[C@H]1CCNC(=O)[C@H]([C@@H](C)O)NC(=O)[C@H](CCNCS(=O)(=O)O)NC(=O)[C@H](CCNCS(=O)(=O)O)NC(=O)[C@H](CC(C)C)NC(=O)[C@H](CC(C)C)NC(=O)[C@H](CCNCS(=O)(=O)O)NC1=O)[C@@H](C)O` shows relative enzymatic activity of 0.5 or more.
met

Say whether `C=CC1=C(C(=O)O)N2C(=O)[C@@H](NC(=O)/C(=N\O)c3csc(N)n3)[C@H]2SC1` shows relative enzymatic activity of 0.5 or more.
not met

----------
Assay Target: MurC (UniProt C4ZRI6)
Sequence (C4ZRI6 whole entry, looked up): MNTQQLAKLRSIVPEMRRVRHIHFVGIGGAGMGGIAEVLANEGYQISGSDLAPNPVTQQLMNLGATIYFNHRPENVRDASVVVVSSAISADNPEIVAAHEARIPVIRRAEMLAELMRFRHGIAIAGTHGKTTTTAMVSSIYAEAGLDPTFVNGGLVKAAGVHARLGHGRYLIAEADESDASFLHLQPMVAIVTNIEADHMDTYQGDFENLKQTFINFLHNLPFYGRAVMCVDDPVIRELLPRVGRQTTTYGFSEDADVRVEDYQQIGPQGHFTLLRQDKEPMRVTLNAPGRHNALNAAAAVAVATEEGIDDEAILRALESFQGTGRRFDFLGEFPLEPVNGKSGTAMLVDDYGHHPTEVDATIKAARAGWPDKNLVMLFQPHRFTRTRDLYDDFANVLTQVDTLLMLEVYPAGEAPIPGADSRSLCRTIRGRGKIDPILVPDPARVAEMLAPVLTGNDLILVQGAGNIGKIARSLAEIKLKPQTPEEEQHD
Test Details: relative enzymatic activity vs untreated control (fraction); higher = less inhibition
Recorded Conditions: 100 µM; incubation time: 2 h at 37 C
Result Type: relative enzymatic activity
Lab note: write the figure by itself, no unit.

- Molecule: "C[C@H]1[C@H](NC(=O)/C(=N\\OC(C)(C)C(=O)O)c2csc(N)n2)C(=O)N1S(=O)(=O)O"
  relative enzymatic activity: 1.29
- Molecule: "CCCC[P+](CCCC)(CCCC)Cc1ccc(NC(=O)[C@@H](Cc2ccc3ccccc3c2)N=C(NC2CCCCC2)NC2CCCCC2)cc1"
  relative enzymatic activity: 0.817
- Molecule: "COC1C=COC2(C)Oc3c(C)c(O)c4c(O)c(c(C=NN5CCN(C6CCCC6)CC5)c(O)c4c3C2=O)NC(=O)C(C)=CC=CC(C)C(O)C(C)C(O)C(C)C(OC(C)=O)C1C (stereo not drawn)"
  relative enzymatic activity: 0.182
- Molecule: "O=C1CN(N=Cc2ccc([N+](=O)[O-])o2)C(=O)N1"
  relative enzymatic activity: 1.05
- Molecule: "O=C(O)c1c(O)c2c([nH]c1=O)CCCC2"
  relative enzymatic activity: 0.602

response.value for `CCn1nc(C(=O)O)c(=O)c2cc3c(cc21)OCO3` (field: relative enzymatic activity) = 1.01

response.value for COC1C=COC2(C)Oc3c(C)c(O)c4c(O)c(c5c(nc6cc(C)ccn65)c4c3C2=O)NC(=O)C(C)=CC=CC(C)C(O)C(C)C(O)C(C)C(OC(C)=O)C1C (stereo not drawn) (field: relative enzymatic activity) = 0.715

response.value for `C[C@H]1COc2c(C3(N)CC3)c(F)cc3c(=O)c(C(=O)O)cn1c23` (field: relative enzymatic activity) = 1.01
